Origin of the recorded values: paper PMC10224544

Biological target: UniProtKB P81908
Experiment: biochemical
# note: boundary value 4 µg/mL maps to no (0); IC50, inhibition of butyrylcholinesterase below it maps to yes (1)

Examples with answers:
O=C([O-])Cc1ccccc1Cl.O=C([O-])Cc1ccccc1Cl.O=C([O-])Cc1ccccc1Cl.O=C([O-])Cc1ccccc1Cl.Oc1ccncc1.Oc1ccncc1.[Cu+2].[Cu+2] [Complex 3, Cun(2-ClC6H4COO)4(4-OHPy)2] ... no (0)
O=C([O-])Cc1cccc(Cl)c1.O=C([O-])Cc1cccc(Cl)c1.O=C([O-])Cc1cccc(Cl)c1.O=C([O-])Cc1cccc(Cl)c1.Oc1ccncc1.Oc1ccncc1.[Cu+2].[Cu+2] [Complex 6, Cu2(3-ClC6H4COO)4(4-OHPy)2] ... no (0)
N#Cc1cccnc1.N#Cc1cccnc1.O=C([O-])Cc1ccccc1Cl.O=C([O-])Cc1ccccc1Cl.O=C([O-])Cc1ccccc1Cl.O=C([O-])Cc1ccccc1Cl.[Cu+2].[Cu+2] [Complex 1, Cu2(2-ClC6H4COO)4(3-CNPy)2] ... no (0)

In the following, a different compound is considered.
Query :: Report whether reported IC50, inhibition of butyrylcholinesterase is lower than 4 µg/mL (strictly) for N#Cc1cccnc1.N#Cc1cccnc1.O=C([O-])Cc1cccc(Cl)c1.O=C([O-])Cc1cccc(Cl)c1.O=C([O-])Cc1cccc(Cl)c1.O=C([O-])Cc1cccc(Cl)c1.[Cu+2].[Cu+2] [Complex 4, Cu2(3-ClC6H4COO)4(3-CNPy)2]
Result :: yes (1)

###

Items are presented alongside their recorded H2O2 free radical scavenging ability.
Experiment: Hydrogen peroxide scavenging assay
Settings: Comp. Conc. 500 µg/mL; mean ± S.E.M, n = 3
The figure you give is taken to be in %; do not add the unit.

Short answer for N#Cc1cccnc1.N#Cc1cccnc1.O=C([O-])Cc1ccccc1Cl.O=C([O-])Cc1ccccc1Cl.O=C([O-])Cc1ccccc1Cl.O=C([O-])Cc1ccccc1Cl.[Cu+2].[Cu+2] : H2O2 free radical scavenging ability was 74.27

###

Target: acetylcholinesterase (AChE) (Electrophorus electricus)
Sequence (O42275 24-633): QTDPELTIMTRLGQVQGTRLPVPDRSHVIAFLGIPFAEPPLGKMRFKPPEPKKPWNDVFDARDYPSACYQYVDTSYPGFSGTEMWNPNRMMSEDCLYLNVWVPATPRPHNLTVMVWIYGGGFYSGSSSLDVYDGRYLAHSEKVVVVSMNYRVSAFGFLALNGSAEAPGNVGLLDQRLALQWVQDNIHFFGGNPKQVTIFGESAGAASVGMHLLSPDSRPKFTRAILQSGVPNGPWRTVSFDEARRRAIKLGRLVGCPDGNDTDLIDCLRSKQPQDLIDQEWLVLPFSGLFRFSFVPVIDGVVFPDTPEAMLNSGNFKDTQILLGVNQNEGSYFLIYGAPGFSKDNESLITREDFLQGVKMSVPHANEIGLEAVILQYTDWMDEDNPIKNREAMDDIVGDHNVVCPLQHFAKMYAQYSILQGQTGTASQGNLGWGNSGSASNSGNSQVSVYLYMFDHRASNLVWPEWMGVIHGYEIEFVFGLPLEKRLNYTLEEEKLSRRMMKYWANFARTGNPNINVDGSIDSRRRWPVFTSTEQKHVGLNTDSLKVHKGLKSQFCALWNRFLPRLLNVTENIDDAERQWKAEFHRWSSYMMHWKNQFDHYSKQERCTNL
Experiment: biochemical
Assay type: biochemical
Experimental: The synthesized compounds were evaluated for acetylcholinesterase (ACh) and butyrylcholinesterase (BCh) enzyme inhibitory activities. The enzymes acetylcholinesterase (AChE) and butyrylcholinesterase (BChE) play an important role in the transfer of signals and physiological function. […] Herein, the compounds under study were evaluated for their potential to inhibit acetylthiocholine iodide (AChI) and butyrylthiocholine iodide (BChI) enzymes. […]
observation_type: IC50, Inhibition of Acetylcholinesterase (µg/mL)
Field: numeric (µg/mL). Do not append units.

Below, 4 compounds whose answers are already recorded.
N#Cc1ccncc1.N#Cc1ccncc1.O=C([O-])Cc1ccccc1Cl.O=C([O-])Cc1ccccc1Cl.O=C([O-])Cc1ccccc1Cl.O=C([O-])Cc1ccccc1Cl.[Cu+2].[Cu+2] ... 2
N#Cc1ccncc1.N#Cc1ccncc1.O=C([O-])Cc1cccc(Cl)c1.O=C([O-])Cc1cccc(Cl)c1.O=C([O-])Cc1cccc(Cl)c1.O=C([O-])Cc1cccc(Cl)c1.[Cu+2].[Cu+2] ... 5
O=C([O-])Cc1ccccc1Cl.O=C([O-])Cc1ccccc1Cl.O=C([O-])Cc1ccccc1Cl.O=C([O-])Cc1ccccc1Cl.Oc1ccncc1.Oc1ccncc1.[Cu+2].[Cu+2] ... 17
N#Cc1cccnc1.N#Cc1cccnc1.O=C([O-])Cc1ccccc1Cl.O=C([O-])Cc1ccccc1Cl.O=C([O-])Cc1ccccc1Cl.O=C([O-])Cc1ccccc1Cl.[Cu+2].[Cu+2] ... 39

# evaluate next
Item: N#Cc1cccnc1.N#Cc1cccnc1.O=C([O-])Cc1cccc(Cl)c1.O=C([O-])Cc1cccc(Cl)c1.O=C([O-])Cc1cccc(Cl)c1.O=C([O-])Cc1cccc(Cl)c1.[Cu+2].[Cu+2] | IC50, Inhibition of Acetylcholinesterase: 6

###

Target: UniProt O42275
observation_type: pIC50
Just the number, please; pIC50 means minus log10 of the concentration in mol/L.

Tested on UniProt O42275, the item O=C(O)Cc1cccc(Cl)c1 showed pIC50 equal to 3.63

###

Molecular target: acetylcholinesterase (AChE) (Electrophorus electricus)
Assay: biochemical
Assay type: biochemical
Conditions: Comp. Conc. 125 µg/mL; n = 3
Examples of molecules with documented Inhibition of Acetylcholinesterase (%AChE Activity) follow.
Field format: number, assumed %, no unit text.

O=C([O-])Cc1ccccc1Cl.O=C([O-])Cc1ccccc1Cl.O=C([O-])Cc1ccccc1Cl.O=C([O-])Cc1ccccc1Cl.Oc1ccncc1.Oc1ccncc1.[Cu+2].[Cu+2] ... 67.90

// moving on: another record for Inhibition of Acetylcholinesterase (%AChE Activity)
Entry under test: N#Cc1ccncc1.N#Cc1ccncc1.O=C([O-])Cc1cccc(Cl)c1.O=C([O-])Cc1cccc(Cl)c1.O=C([O-])Cc1cccc(Cl)c1.O=C([O-])Cc1cccc(Cl)c1.[Cu+2].[Cu+2] . Its Inhibition of Acetylcholinesterase (%AChE Activity) was 71.76

###

Target: butyrylcholinesterase (BChE) (Equus caballus)
Assay: biochemical
Conditions: Comp. Conc. 500 µg/mL; n = 3
The following compounds are shown together with reported inhibition of butyrylcholinesterase (% BChE activity) values.
# number only, unit % dropped from output

Consider the following illustrative entries.
O=C([O-])Cc1cccc(Cl)c1.O=C([O-])Cc1cccc(Cl)c1.O=C([O-])Cc1cccc(Cl)c1.O=C([O-])Cc1cccc(Cl)c1.Oc1ccncc1.Oc1ccncc1.[Cu+2].[Cu+2] [Complex 6, Cu2(3-ClC6H4COO)4(4-OHPy)2] ... 72.03
O=C([O-])Cc1ccccc1Cl.O=C([O-])Cc1ccccc1Cl.O=C([O-])Cc1ccccc1Cl.O=C([O-])Cc1ccccc1Cl.Oc1ccncc1.Oc1ccncc1.[Cu+2].[Cu+2] [Complex 3, Cun(2-ClC6H4COO)4(4-OHPy)2] ... 73.2
N#Cc1ccncc1.N#Cc1ccncc1.O=C([O-])Cc1cccc(Cl)c1.O=C([O-])Cc1cccc(Cl)c1.O=C([O-])Cc1cccc(Cl)c1.O=C([O-])Cc1cccc(Cl)c1.[Cu+2].[Cu+2] [Complex 5, Cu2(3-ClC6H4COO)4(4-CNPy)2] ... 86.86
N#Cc1ccncc1.N#Cc1ccncc1.O=C([O-])Cc1ccccc1Cl.O=C([O-])Cc1ccccc1Cl.O=C([O-])Cc1ccccc1Cl.O=C([O-])Cc1ccccc1Cl.[Cu+2].[Cu+2] [Complex 2, Cu2(2-ClC6H4COO)4(4-CNPy)2] ... 76.87

Now let's try a different one.
Known value: butyrylcholinesterase (BChE) (Equus caballus) inhibition of butyrylcholinesterase (% BChE activity) of the compound N#Cc1cccnc1.N#Cc1cccnc1.O=C([O-])Cc1cccc(Cl)c1.O=C([O-])Cc1cccc(Cl)c1.O=C([O-])Cc1cccc(Cl)c1.O=C([O-])Cc1cccc(Cl)c1.[Cu+2].[Cu+2] [Complex 4, Cu2(3-ClC6H4COO)4(3-CNPy)2] equals 81.94

###

Let's look at some compounds and their measured Inhibition of Acetylcholinesterase (%AChE Activity).
Target: acetylcholinesterase (AChE) (Electrophorus electricus)
Assay: biochemical
Type: biochemical
Details: Comp. Conc. 1000 µg/mL; n = 3
Description: The synthesized compounds were evaluated for acetylcholinesterase (ACh) and butyrylcholinesterase (BCh) enzyme inhibitory activities. The enzymes acetylcholinesterase (AChE) and butyrylcholinesterase (BChE) play an important role in the transfer of signals and physiological function. […] Herein, the compounds under study were evaluated for their potential to inhibit acetylthiocholine iodide (AChI) and butyrylthiocholine iodide (BChI) enzymes. […]
Please reply with the bare figure in % and do not write the unit itself.

N#Cc1cccnc1.N#Cc1cccnc1.O=C([O-])Cc1ccccc1Cl.O=C([O-])Cc1ccccc1Cl.O=C([O-])Cc1ccccc1Cl.O=C([O-])Cc1ccccc1Cl.[Cu+2].[Cu+2] ... 77.61

Noted for O=C([O-])Cc1ccccc1Cl.O=C([O-])Cc1ccccc1Cl.O=C([O-])Cc1ccccc1Cl.O=C([O-])Cc1ccccc1Cl.Oc1ccncc1.Oc1ccncc1.[Cu+2].[Cu+2] : its Inhibition of Acetylcholinesterase (%AChE Activity) reads 81.03

###

Molecular target: butyrylcholinesterase (BChE) (Equus caballus, UniProt P81908)
Sequence (P81908 whole entry): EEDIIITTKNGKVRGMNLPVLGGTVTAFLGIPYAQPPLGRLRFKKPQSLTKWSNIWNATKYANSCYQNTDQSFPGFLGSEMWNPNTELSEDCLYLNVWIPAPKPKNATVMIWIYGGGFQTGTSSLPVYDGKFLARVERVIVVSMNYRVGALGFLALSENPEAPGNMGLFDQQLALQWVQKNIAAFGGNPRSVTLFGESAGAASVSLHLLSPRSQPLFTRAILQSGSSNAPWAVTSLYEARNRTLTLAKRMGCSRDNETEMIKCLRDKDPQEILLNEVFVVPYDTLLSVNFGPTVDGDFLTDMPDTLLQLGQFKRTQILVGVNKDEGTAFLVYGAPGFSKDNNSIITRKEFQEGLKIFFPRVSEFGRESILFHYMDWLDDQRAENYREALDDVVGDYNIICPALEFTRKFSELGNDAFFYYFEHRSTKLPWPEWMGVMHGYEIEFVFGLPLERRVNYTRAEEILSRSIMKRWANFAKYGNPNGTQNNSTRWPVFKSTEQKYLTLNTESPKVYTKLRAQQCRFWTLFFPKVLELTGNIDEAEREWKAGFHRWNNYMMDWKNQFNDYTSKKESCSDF
Test: biochemical
Settings: Comp. Conc. 1000 µg/mL; n = 3
Procedure: The enzymes acetylcholinesterase (AChE) and butyrylcholinesterase (BChE) play an important role in the transfer of signals and physiological function. They assist acetylcholine to hydrolyze and produce choline and acetyl group in synaptic region. So, they are considered as targets in the management of Alzheimer’s disease. Herein, the compounds under study were evaluated for their potential to inhibit acetylthiocholine iodide (AChI) and butyrylthiocholine iodide (BChI) enzymes. […]
# inhibition of butyrylcholinesterase (% BChE activity) per record follows
Note: unit % is implicit; provide only the numeric part.

N#Cc1ccncc1.N#Cc1ccncc1.O=C([O-])Cc1ccccc1Cl.O=C([O-])Cc1ccccc1Cl.O=C([O-])Cc1ccccc1Cl.O=C([O-])Cc1ccccc1Cl.[Cu+2].[Cu+2] ... 81.44

Next item in the queue.
Summary for this compound, N#Cc1cccnc1.N#Cc1cccnc1.O=C([O-])Cc1ccccc1Cl.O=C([O-])Cc1ccccc1Cl.O=C([O-])Cc1ccccc1Cl.O=C([O-])Cc1ccccc1Cl.[Cu+2].[Cu+2] : inhibition of butyrylcholinesterase (% BChE activity) is 81.79
